Attribute: PBM binding z-score
Tested on: FXR:RXRa (NR concentration 270 nM, RXRa partner concentration 90 nM)
Assay Protocol: PBM binding z-score (relative to random genomic background probes); higher = stronger binding; sequences stand for … in GC…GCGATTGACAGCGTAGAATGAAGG
Assay Metric: PBM binding z-score

INSERT INTO measurements (seq_string, number) VALUES
  ('CGAACTAGGTCAGAACAGAACAGTGAAGGATGAT', 0.766),
  ('TCTTGTAGATCAGCAGGTTAAGAAGGCTGGCCAA', 0.433),
  ('ATCGAAAGATCGAGGTGAGTATAGAGAAAGGGAA', 0.0424),
  ('TCTTGTGGATCAATAGAGGTTAAGAAAGTGCGCT', 0.938),
  ('AGCTCTAGGTAACAAGTTCAGTGAAAGAGAGGAC', 0.5),
  ('ATCGAAAGGTCGAAGGTGAGTATGCCCACCCGAA', 4.46),
  ('ACAGCCAGGTGAGTGAAGGTAACTCAGCTGGACG', 0.0409),
  ('ACTAGCTGGCCAAGGGTCACTCAAGATTAGTCCG', 2.23),
  ('AGAATGAGGTTACGATCAGGGAAACAGAATACAT', 1.98),
  ('GTACCAAGGTGAATAGGACGTTGATGAGTAGGCG', 0.0663),
  ('CTCGAAAGATCGGTTGAGGTGAGTATACGGATAA', 0.238),
  ('GCTAGCAGGCCATTTGAGTCACTCAATGACGGGC', -0.524),
  ('GCTAGCAGGCGATTTGGGTCACTCAATGACGGGC', 0.0524),
  ('CCTTACGGGTCACTCCAGGTTATAGCCTCGGAGT', 4.87),
  ('TCTCCGAGGACACGAAGGTCAGAGCTTTCCAGAG', 1.91),
  ('CCTTACGGGTCACGCGGTTATAGCACGACGAGCG', 6.26),
  ('CAGACTGGGGCAAGGTTACCATAACGCACAGCCA', 0.535),
  ('TCTTGTAGATCAAGCAGCTTAAGAAAGCCTGAGT', -0.352),
  ('CGTCCAAGGTCAGGGAGGTCAGTGAATGCCGAGT', 6.32),
  ('ATATGTAGGTAAGCTGGGGTCATTCAGACTAGGC', 4.33),
  ('CCGACTGTGGCATAAGGTTACCATAAGCCAGCCC', 0.578),
  ('CGTCCAAGGTCAATGCTAGGTCAATGAAAGCATT', 6.8),
  ('CGAACTAGGTCATGGACAGTGAATCTCCGCACGC', 3.63),
  ('AGAATGAGGGCAATGAGTTGATAGCACGGGTGGC', 0.728),
  ('GGAACGTGGGCAAAGTTGATAGCATCTGTCGACG', -0.58),
  ('AATAGCAGGCCAAGTTTGGGTCACTCAAACAAAG', 0.16);
